- targetOfAssay: PI3Kδ (p110δ/p85α) Recombinant Human Protein (Homo sapiens (Human), UniProt O00329)
- Sequence (O00329 whole entry): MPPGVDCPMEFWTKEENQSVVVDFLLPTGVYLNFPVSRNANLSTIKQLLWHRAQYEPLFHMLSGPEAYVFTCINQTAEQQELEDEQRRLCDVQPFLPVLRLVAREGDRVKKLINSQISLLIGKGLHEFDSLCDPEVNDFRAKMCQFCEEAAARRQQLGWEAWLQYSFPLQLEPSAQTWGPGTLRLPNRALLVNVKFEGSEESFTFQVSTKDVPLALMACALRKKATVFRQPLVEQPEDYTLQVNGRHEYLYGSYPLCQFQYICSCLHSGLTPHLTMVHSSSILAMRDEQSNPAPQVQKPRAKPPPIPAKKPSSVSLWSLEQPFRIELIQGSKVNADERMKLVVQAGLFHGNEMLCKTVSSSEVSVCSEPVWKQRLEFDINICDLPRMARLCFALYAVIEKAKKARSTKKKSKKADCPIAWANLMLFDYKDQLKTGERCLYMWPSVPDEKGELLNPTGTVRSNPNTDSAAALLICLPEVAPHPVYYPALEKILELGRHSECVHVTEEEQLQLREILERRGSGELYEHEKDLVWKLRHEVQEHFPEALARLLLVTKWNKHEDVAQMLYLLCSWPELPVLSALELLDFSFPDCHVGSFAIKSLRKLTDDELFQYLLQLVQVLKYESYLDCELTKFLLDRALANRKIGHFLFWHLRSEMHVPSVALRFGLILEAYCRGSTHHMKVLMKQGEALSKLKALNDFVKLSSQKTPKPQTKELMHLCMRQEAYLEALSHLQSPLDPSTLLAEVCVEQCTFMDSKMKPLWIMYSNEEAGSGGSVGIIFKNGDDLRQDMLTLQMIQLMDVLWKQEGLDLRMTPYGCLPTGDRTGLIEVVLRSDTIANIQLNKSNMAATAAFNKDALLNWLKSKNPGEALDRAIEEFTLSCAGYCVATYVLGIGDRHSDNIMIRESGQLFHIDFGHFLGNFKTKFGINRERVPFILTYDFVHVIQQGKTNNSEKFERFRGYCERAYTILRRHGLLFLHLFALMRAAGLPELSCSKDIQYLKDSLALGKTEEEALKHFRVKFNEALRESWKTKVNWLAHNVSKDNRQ
- Sequence (P27986 whole entry partner): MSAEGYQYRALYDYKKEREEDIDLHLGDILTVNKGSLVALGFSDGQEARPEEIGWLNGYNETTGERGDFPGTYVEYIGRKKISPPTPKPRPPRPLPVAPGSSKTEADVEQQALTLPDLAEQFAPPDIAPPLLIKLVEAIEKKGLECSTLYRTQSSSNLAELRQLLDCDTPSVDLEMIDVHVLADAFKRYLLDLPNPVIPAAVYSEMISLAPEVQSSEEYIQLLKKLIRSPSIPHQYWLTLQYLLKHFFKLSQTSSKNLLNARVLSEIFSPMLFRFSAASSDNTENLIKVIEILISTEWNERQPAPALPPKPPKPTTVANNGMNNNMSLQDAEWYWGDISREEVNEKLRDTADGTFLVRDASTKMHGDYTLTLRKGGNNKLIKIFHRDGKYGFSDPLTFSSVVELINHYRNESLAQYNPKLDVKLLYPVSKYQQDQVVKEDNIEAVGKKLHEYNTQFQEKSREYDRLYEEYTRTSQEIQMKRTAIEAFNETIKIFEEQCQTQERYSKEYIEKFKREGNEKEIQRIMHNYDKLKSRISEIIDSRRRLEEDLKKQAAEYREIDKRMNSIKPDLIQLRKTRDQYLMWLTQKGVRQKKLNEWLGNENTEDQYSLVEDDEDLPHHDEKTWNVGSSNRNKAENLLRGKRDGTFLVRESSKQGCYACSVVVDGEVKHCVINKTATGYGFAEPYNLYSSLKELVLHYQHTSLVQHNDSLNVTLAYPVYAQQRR
- measurementDescription: PI3Kδ scintillation proximity assay
- Format: biochemical
- conditionInfo: Table B, Assay C
measuredParameter: IC50

Output measured IC50 for this item: CCOc1c(C(C)n2nc(C)c3c(N)ncnc32)cc(C)c(C#N)c1-c1ccc(C(=O)N(C)C)nc1 (stereo not shown) [Example 31, reference compound] < 50 nM

Provide only the value of recorded IC50 for CCOc1c(C(C)n2nc(C)c3c(N)ncnc32)cc(Cl)c(F)c1C1CNC(=O)C1 (single isomer, unassigned) [Example 32a, reference compound] 50 to 200 nM

Name the recorded IC50 of the item COc1c(C(C)n2nc(C)c3c(N)ncnc32)cc(Cl)c(C#N)c1C1CN(CCO)C1 (stereo not shown) [Example 30] in your answer. < 50 nM

Specify reported IC50 for the compound shown: CCOc1c(C(C)n2nc(C)c3c(N)ncnc32)cc(Cl)c(F)c1C1CNC(=O)C1 (single isomer, unassigned) [Example 32b, reference compound] < 50 nM

Write down IC50 measured for item CCOc1c(C(C)n2nc(C)c3c(N)ncnc32)cc(Cl)c(F)c1C1CNC(=O)C1 (single isomer, unassigned) [Example 32c, reference compound] < 50 nM

Input CCOc1c(C(C)n2nc(C)c3c(N)ncnc32)cc(Cl)c(F)c1C1CNC(=O)C1 (single isomer, unassigned) [Example 32d, reference compound] , output reported IC50. 50 to 200 nM

Provide only the value of recorded IC50 for COc1c(C(C)n2nc(C)c3c(N)ncnc32)cc(Cl)c(C#N)c1C1CN(C[C@H](C)O)C1 (stereo partly shown) [Example 29] < 50 nM
